Target: T1, human PD-L1 ECD-His (human, UniProt Q9NZQ7 19-238)
T1 construct: extracellular domain; Analyte in all SPR and BLI runs; also called hPD-L1_ECD-His; hPD-L1 ECD-His; not shown: His tag
T1 sequence (Q9NZQ7 19-238): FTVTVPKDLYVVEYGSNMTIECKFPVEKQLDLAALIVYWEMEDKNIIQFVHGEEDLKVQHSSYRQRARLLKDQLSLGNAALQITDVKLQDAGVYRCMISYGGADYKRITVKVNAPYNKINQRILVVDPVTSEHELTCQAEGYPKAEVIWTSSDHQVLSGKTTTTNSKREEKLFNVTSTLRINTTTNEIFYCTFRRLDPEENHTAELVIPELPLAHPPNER
Test: SPR, hPD-L1-His, PL3 variants
Reported pKd is given for each of the following binders.
Remember the convention: pKd equals -log10 of concentration in molar.

These solved cases illustrate the format of a correct answer.
>  <BINDER>
PL3#7 IgG2 (antibody, V domains shown, Human IgG2) VH: QVQLVQSGAEVKKPGSSVKVSCKASGGTFSSYPISWVRQAPGQGLEWIGRIIPILGIANYAQKFQGRVTITADKSTSTAYMELSSLRSEDTAVYYCARSRDGYAFGAFDIWGQGTLVTVSS VL: QSVVTQPPPVSGAPGQRVTISCTGSSSNIGAGYDVHWYQQLPGTAPKLLIYGNSNRPSGVPDRFSGSKSGTSASLAITGLQAEDEADYYCQTYDSSLSARVVFGGGTKLTVL

>  <REPORTED RESULT>
9.46

$$$$
>  <BINDER>
PL3#7 IgG4 (antibody, V domains shown, Human IgG4) VH: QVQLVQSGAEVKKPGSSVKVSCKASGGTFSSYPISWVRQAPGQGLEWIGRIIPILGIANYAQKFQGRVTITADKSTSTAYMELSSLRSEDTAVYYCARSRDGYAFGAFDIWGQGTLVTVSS VL: QSVVTQPPPVSGAPGQRVTISCTGSSSNIGAGYDVHWYQQLPGTAPKLLIYGNSNRPSGVPDRFSGSKSGTSASLAITGLQAEDEADYYCQTYDSSLSARVVFGGGTKLTVL

>  <REPORTED RESULT>
9.49

$$$$

input: Fill blank: measured pKd of the binder PL3#1 mtIgG1 (N297A) (antibody, V domains shown, N297A mutant human IgG1) VH: QVQLVQSGAEVKKPGSSVKVSCKASGGTFSSYRISWVRQAPGQGLEWMGRIIPILGIANYAQKFQGRVTITADKSTSTAYMELSSLRSEDTAVYYCARSRDGYSVGAFDSWGQGTLVTVSS VL: QSVVTQPPPVSGAPGQRVTISCTGSSSNIGAGYDVHWYQQLPGTAPKLLIYGNSRRPSGVPDRFSGSKSGTSASLAITGLQAEDEADYYCQTYDSSLSRPVVFGGGTKLTVL is ____.
output: 9.44

Every entry's value here was drawn from patent US20190225691A1.
